System: MDA-MB-468 breast
measurement_protocol: NCI-60 one-dose screen, 48 h
condition_label: 10 µM unless noted
Compounds without any hit were thinned out: in the full panel of roughly 83,000, 20% have a hit. Activity calls are given as the source filed them. How the source made its calls: active means growth percent below 10; inactive means the rest.
Respond using exactly one of the listed classes: active, inactive

Previously resolved entries follow.
[[record]]
compound = "N#Cc1cccc(CN2CCC3=C(C2)C(=O)N(Cc2ccc(Cl)cc2)C2=NCCN23)c1"
label_value = "active"

[[record]]
compound = "O=C(Nc1cccc(Cl)c1)Nc1nc2cc([N+](=O)[O-])ccc2o1"
label_value = "inactive"

[[record]]
compound = "COc1cc(C2NC(c3ccc(Cl)cc3)C(C)/C(=N/NC(N)=S)C2C)cc(OC)c1OC (stereo not drawn)"
label_value = "inactive"

[[record]]
compound = "COc1cccc(CC(C)=C(c2ccc(OCCN(C)C)cc2)c2ccc(OCCN(C)C)cc2)c1"
label_value = "active"


Can you look up the reported call for CCOC(=O)C1=CSC2=NC3=C(CCC/C3=C\c3ccc(Cl)cc3)C(c3ccc(Cl)cc3)N12 (stereo not drawn) for me?
inactive

Can you look up the reported call for CCOc1cccc(/C=N/NC(=O)C(=O)Nc2cccc(C(F)(F)F)c2)c1O for me?
active

Can you look up the reported call for CCCCCCOC(=O)CC1=C(C)/C(=C/c2[nH]c(-c3ccc[nH]3)cc2OC)N=C1C for me?
active

###

System: HCT-116 colon
measurement_protocol: NCI-60 one-dose screen, 48 h (100 = growth as untreated, 0 = no growth, -100 = all killed)
condition_label: 10 µM
This is part of a sample that, as a whole, favours compounds with a hit. Of some 83,000 tested, about 20% had one in any assay.
measured_parameter: growth (%)
The reply should contain only the number, in %.

[[record]]
compound = "COc1ccc(Cc2nn(CC(=O)N/N=C/c3ccc([N+](=O)[O-])cc3)c(=O)c3c(C)noc23)cc1"
system = "HCT-116 colon"
measurement = 27

[[record]]
compound = "C#C[C@]1(O)CC[C@H]2[C@@H]3CC=C4c5sc(Nc6ccc(N(C)C)cc6)nc5CC[C@]4(C)[C@H]3CC[C@@]21C"
system = "HCT-116 colon"
measurement = -77.9

[[record]]
compound = "COc1ccc(C2OC[C@@]3(C)C4CC[C@]5(C)C(CC=C6C7CC(C)(C)CC[C@]7(C(=O)O)CC[C@]65C)[C@@]4(C)C[C@@H](O)[C@@H]3O2)cc1 (some centres undefined)"
system = "HCT-116 colon"
measurement = 43.3


Please find the next compound below.
Quick note, growth for COc1ccccc1-n1cc(C#N)c(N)c1C(=O)c1ccc(Cl)cc1Cl landed at 36.6

###

// reported growth per item
Tested on: MDA-MB-468 breast
measurement_protocol: NCI-60 one-dose screen, 48 h (100 = growth as untreated, 0 = no growth, -100 = all killed)
condition_label: 10 µM unless noted
The panel holds about 83,000 compounds, 20% with a hit somewhere; the sample as a whole holds those more often.
The reply should contain only the number, in %.

// known answers, use as guide
[[record]]
molecule = "NS(=O)(=O)c1cc(Br)c2c(c1)S(=O)(=O)NCN2"
measured_parameter = "growth"
reading_unit = "%"
measurement = 126

[[record]]
molecule = "COc1ccc(C(=O)Nc2cccc(-c3cc(=O)c4c(OC)c(OC)c(OC)cc4o3)c2)cc1"
measured_parameter = "growth"
reading_unit = "%"
measurement = 75.2

[[record]]
molecule = "O=C(Nc1ccccc1S)c1ccccc1"
measured_parameter = "growth"
reading_unit = "%"
measurement = 115


growth value, target or system MDA-MB-468 breast, for Cc1cc2c(cc1[N+](=O)[O-])NC(CNC(C)C)CC2 (stereo unspecified) : 83.3

growth value, target or system MDA-MB-468 breast, for COc1ccc(C(=O)c2cc3c(N)c(C(=O)Nc4cccc(OC)c4)sc3nc2C)cc1 : 4.38

growth value, target or system MDA-MB-468 breast, for Cc1c(C(=O)NCCC(=O)NO)sc2ncnc(Nc3ccc(NC(=O)Nc4cccc(C(F)(F)F)c4)cc3)c12 : 97.2

Recorded values, source PubChem BioAssay (NCI).
